Reported screen value values are given for each entry in this list.
B1: S. cerevisiae Abp1 (full length; SH3 domain 535-592 mutated) / Hua2 (parent)
chain 1: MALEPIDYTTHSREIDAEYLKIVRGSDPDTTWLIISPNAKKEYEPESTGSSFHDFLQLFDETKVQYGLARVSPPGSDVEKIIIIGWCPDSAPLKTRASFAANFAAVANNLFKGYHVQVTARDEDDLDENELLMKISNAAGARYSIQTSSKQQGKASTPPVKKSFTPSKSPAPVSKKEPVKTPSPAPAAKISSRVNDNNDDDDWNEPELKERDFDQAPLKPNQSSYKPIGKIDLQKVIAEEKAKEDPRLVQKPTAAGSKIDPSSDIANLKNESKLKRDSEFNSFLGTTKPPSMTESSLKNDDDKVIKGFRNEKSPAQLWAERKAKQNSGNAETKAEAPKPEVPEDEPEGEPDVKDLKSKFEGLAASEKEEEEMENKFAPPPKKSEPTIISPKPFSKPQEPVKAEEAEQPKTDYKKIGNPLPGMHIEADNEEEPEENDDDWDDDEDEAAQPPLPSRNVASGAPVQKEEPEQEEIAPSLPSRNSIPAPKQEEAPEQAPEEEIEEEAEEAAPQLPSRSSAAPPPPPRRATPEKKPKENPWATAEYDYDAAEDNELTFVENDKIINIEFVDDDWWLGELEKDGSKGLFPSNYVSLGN
chain 2: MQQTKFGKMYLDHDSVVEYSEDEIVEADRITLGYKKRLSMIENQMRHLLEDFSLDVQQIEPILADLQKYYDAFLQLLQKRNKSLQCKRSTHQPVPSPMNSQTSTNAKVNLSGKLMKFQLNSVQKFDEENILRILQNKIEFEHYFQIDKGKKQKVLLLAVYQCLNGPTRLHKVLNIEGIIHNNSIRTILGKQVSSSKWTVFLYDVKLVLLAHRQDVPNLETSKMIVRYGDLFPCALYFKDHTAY

Variants of: B1
Assay: DHFR protein-fragment complementation in yeast (Abp1-DHFR F[1,2] x partner-DHFR F[3]), deep mutational scanning, second methotrexate selection vs reference
Settings: with Hua2; S. cerevisiae, DHFR-PCA selection in liquid with methotrexate at 30 C, two 72 h selections (the score uses the second); reference = the pre-selection culture; not an affinity; value at the no-binding floor (a bound); scale: DMS score: mean over two replicates of log2(f_test/f_ref + 0.5)/ln 2, minus the synonymous-codon median

Below: 6 variants and their reported screen value.
MUTATION KEY	REPORTED VALUE
chain 1 W569D	-3.03
chain 1 V588S	< -3.06
chain 1 I560P	< -3.06
chain 1 W569N	< -3.06
chain 1 A539D	-3
chain 1 W570P	< -3.06

[Q] Any idea what screen value was measured for chain 1 D566I ?
[A] < -3.06

[Q] Any idea what screen value was measured for chain 1 K580P ?
[A] -2.98
